Data provenance is paper PMC11212260.

Attribute: pEC50
# study-target: Ae. aegypti NPYLR7 (Aedes aegypti)
# Sequence (U5N1H5 entry or part of it): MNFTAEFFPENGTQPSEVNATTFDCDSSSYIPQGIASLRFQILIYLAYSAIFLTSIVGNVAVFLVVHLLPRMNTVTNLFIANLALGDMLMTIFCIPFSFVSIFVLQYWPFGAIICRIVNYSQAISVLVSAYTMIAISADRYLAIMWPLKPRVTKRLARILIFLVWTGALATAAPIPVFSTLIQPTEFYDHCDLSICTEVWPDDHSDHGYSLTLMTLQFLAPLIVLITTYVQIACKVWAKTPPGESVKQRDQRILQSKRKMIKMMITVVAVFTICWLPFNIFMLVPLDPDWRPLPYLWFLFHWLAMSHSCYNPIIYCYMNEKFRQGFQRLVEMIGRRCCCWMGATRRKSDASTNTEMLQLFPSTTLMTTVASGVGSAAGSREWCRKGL
# assay-overview: In vitro calcium (GCaMP6s) FLIPR assay in HEK293T cells transfected with NPYLR7
# Type: cell-based
# run-parameters: relative EC50, percent effect relative to 10 μM FMRFa3; read-out: EC50
# Protocol: The in vitro screening assay was adapted from, and carried out at HD Biosciences (HDB, Shanghai) as follows: HEK293T (Thermo Fisher Scientific) cells were grown in Dulbecco’s modified Eagle medium (DMEM) (high glucose, with glutamine), 10% fetal bovine serum, 1% penicillin–streptomycin (Pen/Strep), seeded in a 75 cm^2 flask, and incubated at 37 °C and 5% CO2. […] Data were collected in raw fluorescence units (RFU). […]
// field semantics: pEC50 = negative decimal log of concentration (mol/L)

// worked examples, pEC50 included
compound	study-target	pEC50
Cc1nc(NC(=N)N)nc2cc(OCC3CCCCC3)ccc12 [TDI-014169]	Ae. aegypti NPYLR7 (Aedes aegypti)	5.35
COc1ccc(COc2ccc3c(C)nc(NC(=N)N)nc3c2)cn1 [TDI-014173]	Ae. aegypti NPYLR7 (Aedes aegypti)	5.88
CNc1nc(NC(=N)N)nc2cc(OCC3CCOCC3)ccc12 [TDI-014188]	Ae. aegypti NPYLR7 (Aedes aegypti)	7.22
Cc1nc(NC(=N)N)nc2cc(OCC3CC3)ccc12 [TDI-014171]	Ae. aegypti NPYLR7 (Aedes aegypti)	6.04
CCOc1ccc2c(C)nc(NC(=N)N)nc2c1 [TDI-014177]	Ae. aegypti NPYLR7 (Aedes aegypti)	5.25
CNc1nc(NC(=N)N)nc2cc(OCc3ccccc3)c(OC)cc12 [TDI-014184]	Ae. aegypti NPYLR7 (Aedes aegypti)	6.31
Cc1nc(NC(=N)N)nc2cc(OCC3CCOC3)ccc12 (centres unmarked) [TDI-014174]	Ae. aegypti NPYLR7 (Aedes aegypti)	5.27
Cc1nc(NC(=N)N)nc2cc(N3CCc4ccccc4C3)ccc12 [TDI-014186]	Ae. aegypti NPYLR7 (Aedes aegypti)	4.45
CNc1nc(NC(=N)N)nc2cc(OCc3ccc(OC)cc3)c(OC)cc12 [TDI-014185]	Ae. aegypti NPYLR7 (Aedes aegypti)	7.76
COc1ccc(COc2ccc3c(C)nc(NC(=N)N)nc3c2)cc1 [TDI-013000]	Ae. aegypti NPYLR7 (Aedes aegypti)	7.56

Prompt: Given the entry Cc1nc(NC(=N)N)nc2cc(OCC(F)(F)F)ccc12 [TDI-014168] , what pEC50 was observed with Ae. aegypti NPYLR7 (Aedes aegypti)?
Response: 5.37

Prompt: Given the entry Cc1nc(NC(=N)N)nc2cc(OCc3cccnn3)ccc12 [TDI-014179] , what pEC50 was observed with Ae. aegypti NPYLR7 (Aedes aegypti)?
Response: 4.41

Prompt: Given the entry Cc1nc(NC(=N)N)nc2cc(OCC3CCCCO3)ccc12 (centres unmarked) [TDI-014192] , what pEC50 was observed with Ae. aegypti NPYLR7 (Aedes aegypti)?
Response: 5.24

###

# System: Aedes aegypti (Orlando strain) females
# assay-overview: Biting assay (mouse-in-cage)
# Assay type: in vivo
# run-parameters: fed 1 μM
experimental-endpoint: Significantly different (P < 0.05)? vs. saline

chemical-string	reported
CNc1nc(NC(=N)N)nc2cc(OCc3ccccc3)c(OC)cc12	Yes
Cc1nc(NC(=N)N)nc2cc(OCc3ccc(OC(F)F)cc3)ccc12	No
CNc1nc(NC(=N)N)nc2cc(OCC3CCOCC3)ccc12	Yes
Cc1nc(NC(=N)N)nc2cc(N3CCc4ccccc4C3)ccc12	Yes
